Experiment: Inhibition of rat intestinal alpha-glucosidase using p-nitrophenyl-alpha-D-glucopyranoside as substrate preincubated for 5 mins followed by substrate addition and measured after 5 mins by spectrophotometric analysis
pIC50: −log10 of the molar value.
Measured pIC50, listed per entry for reference.
Metric name: pIC50

INSERT INTO assay_data (structure_smiles, measured_value) VALUES
  ('COc1cc(/C=N/n2cnnc2)ccc1O', 5.28),
  ('COc1cc(/C=N/n2cnnc2)cc(OC)c1OC', 5.26),
  ('COc1ccc(Br)cc1/C=N/n1cnnc1', 5.46),
  ('C(=N\n1cnnc1)/c1cc2ccccc2[nH]1', 5.68),
  ('CCOc1ccc(/C=N/n2cnnc2)cc1OC', 5.27),
  ('CC(C)(C)c1cc(/C=N/n2cnnc2)c(C(C)(C)C)cc1O', 5.20),
  ('Cc1ccc(/C=N/n2cnnc2)c(C)c1', 5.37),
  ('Oc1ccc(/C=N/n2cnnc2)cc1', 5.58),
  ('COc1ccc(/C=N/n2cnnc2)c(OC)c1', 5.37);

====

Organism: Homo sapiens
Assay: Uncompetitive inhibition of alpha-glucosidase (unknown origin) assessed as Km using varying levels of para-nitrophenyl-R-D-maltoside as substrate incubated for 30 mins by Lineweaver-Burk plot analysis
Metric name: Km (µM)

INSERT INTO results (structure_smiles, unit_descriptor, measured_value) VALUES
  ('C(=N\n1cnnc1)/c1cc2ccccc2[nH]1', 'µM', 300),
  ('COc1ccc(/C=N/n2cnnc2)c(F)c1', 'µM', 500),
  ('Oc1ccc(/C=N/n2cnnc2)cc1Br', 'µM', 400),
  ('Oc1ccc(/C=N/n2cnnc2)cc1', 'µM', 400),
  ('O=[N+]([O-])c1ccc(/C=N/n2cnnc2)cc1', 'µM', 500),
  ('Nc1ncccc1/C=N/n1cnnc1', 'µM', 500),
  ('O=[N+]([O-])c1cc(O)cc(/C=N/n2cnnc2)c1', 'µM', 500),
  ('COc1cc(/C=N/n2cnnc2)ccc1F', 'µM', 500),
  ('Clc1ccc(/C=N/n2cnnc2)c(Cl)c1', 'µM', 500),
  ('COc1cc(/C=N/n2cnnc2)cc(OC)c1Br', 'µM', 700);

====

Species: Homo sapiens
Experiment: Uncompetitive inhibition of alpha-glucosidase (unknown origin) assessed as Vmax using varying levels of para-nitrophenyl-R-D-maltoside as substrate incubated for 30 mins by Lineweaver-Burk plot analysis
Measured Vmax, listed per entry for reference.
Metric name: Vmax (µM/min)

INSERT INTO assay_data (structure_smiles, measured_value) VALUES
  ('COc1ccc(/C=N/n2cnnc2)c(F)c1', 701),
  ('COc1cc(/C=N/n2cnnc2)cc(OC)c1Br', 690),
  ('C(=N\n1cnnc1)/c1cc2ccccc2[nH]1', 703),
  ('Oc1ccc(/C=N/n2cnnc2)cc1Br', 698),
  ('O=[N+]([O-])c1cc(O)cc(/C=N/n2cnnc2)c1', 695),
  ('O=[N+]([O-])c1ccc(/C=N/n2cnnc2)cc1', 680),
  ('COc1cc(/C=N/n2cnnc2)ccc1F', 697),
  ('Oc1ccc(/C=N/n2cnnc2)cc1', 701),
  ('Clc1ccc(/C=N/n2cnnc2)c(Cl)c1', 685),
  ('Nc1ncccc1/C=N/n1cnnc1', 685);

====

Measured IC50, listed per entry for reference.
Molecular target: Alpha amylase (Homo sapiens, UniProt P0DUB6)
Sequence (P0DUB6 whole entry): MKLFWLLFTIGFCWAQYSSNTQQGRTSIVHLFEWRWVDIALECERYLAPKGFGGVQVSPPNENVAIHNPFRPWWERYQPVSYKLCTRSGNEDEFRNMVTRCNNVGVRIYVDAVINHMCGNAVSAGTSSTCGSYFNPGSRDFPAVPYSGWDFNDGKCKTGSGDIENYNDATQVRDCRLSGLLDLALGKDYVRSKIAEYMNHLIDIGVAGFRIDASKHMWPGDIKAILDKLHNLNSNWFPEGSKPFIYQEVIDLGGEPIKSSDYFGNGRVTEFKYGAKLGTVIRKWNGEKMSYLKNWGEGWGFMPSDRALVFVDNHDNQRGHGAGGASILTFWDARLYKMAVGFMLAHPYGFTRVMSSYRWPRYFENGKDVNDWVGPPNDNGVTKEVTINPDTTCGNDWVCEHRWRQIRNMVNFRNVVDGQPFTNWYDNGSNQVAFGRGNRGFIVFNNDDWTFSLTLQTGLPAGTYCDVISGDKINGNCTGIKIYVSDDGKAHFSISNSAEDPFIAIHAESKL
Test: Inhibition of alpha-amylase (unknown origin) using starch as substrate preincubated for 10 mins followed by substrate addition and measured after 10 mins by dinitrosalicylic acid reagent based assay
Metric name: IC50 (µM)

INSERT INTO measurements (structure_smiles, measured_value) VALUES
  ('COc1cc(/C=N/n2cnnc2)ccc1F', 2.33),
  ('COc1cc(/C=N/n2cnnc2)cc(OC)c1O', 3.31),
  ('C(=N\n1cnnc1)/c1cc2ccc3cccc4ccc(c1)c2c34', 6.41),
  ('C(=N\n1cnnc1)/c1c2ccccc2cc2ccccc12', 5.27),
  ('Cc1ccc(/C=N/n2cnnc2)c(C)c1', 4.34),
  ('CCOc1ccc(/C=N/n2cnnc2)cc1OC', 5.24),
  ('COc1ccc(/C=N/n2cnnc2)c(F)c1', 2.9);

Every entry's value here was drawn from ChEMBL document CHEMBL4622848.
